Data credit: ChEMBL document CHEMBL1955733

- experiment_description: Plasma protein binding in human
- Type: ADME, cell-free
- test_conditions: read-out: PPB (converted)
property_name: fraction unbound
Response field accepts a number only; no unit should be typed.

(Q) Give fraction unbound for C[C@@H]1CCCN1CCCOc1ccc(-c2cnn(-c3ccccn3)c(=O)c2)cc1
(A) 0.56

====

- experiment_description: Half life in cynomolgus monkey at 1 mg/kg, iv
- Type: ADME, organism-based, Macaca fascicularis
- Parameters: dose 1 mg/kg, route intravenous
- test_conditions: in vivo
property_name: half-life (h)
Expressed in h, but write only the number.

(Q) Give half-life for C[C@@H]1CCCN1CCCOc1ccc(-c2cnn(-c3ccccn3)c(=O)c2)cc1
(A) 3.9

====

- experiment_description: Half life in Beagle dog at 1 mg/kg, iv
- Type: ADME, organism-based, Canis lupus familiaris
- Parameters: dose 1 mg/kg, route intravenous
- test_conditions: in vivo
property_name: half-life (h)
Expressed in h, but write only the number.

(Q) Give half-life for C[C@@H]1CCCN1CCCOc1ccc(-c2cnn(-c3ccccn3)c(=O)c2)cc1
(A) 3.6

====

- experiment_description: Oral bioavailability in cynomolgus monkey at 3 mg/kg
- Format: ADME, organism-based, Macaca fascicularis
- test_conditions: in vivo
property_name: bioavailability (%)
Expressed in %, but write only the number.

(Q) Give bioavailability for C[C@@H]1CCCN1CCCOc1ccc(-c2cnn(-c3ccccn3)c(=O)c2)cc1
(A) 96

====

- experiment_description: Half life in cynomolgus monkey at 1 mg/kg, iv and 3 mg/kg, po
- Assay type: ADME, organism-based, Macaca fascicularis
- test_conditions: in vivo
property_name: half-life (h)
Expressed in h, but write only the number.

(Q) Give half-life for C[C@@H]1CCCN1CCCOc1ccc(-c2cnn(-c3ccccn3)c(=O)c2)cc1
(A) 6.5

====

- experiment_description: Half life in human
- Format: ADME, organism-based
- test_conditions: in vivo
property_name: half-life

(Q) Give half-life for C[C@@H]1CCCN1CCCOc1ccc(-c2cnn(-c3ccccn3)c(=O)c2)cc1
(A) > 40 min

====

- experiment_description: Volume of distribution in Beagle dog at 1 mg/kg, iv and 3 mg/kg, po
- Assay type: ADME, organism-based, Canis lupus familiaris
- test_conditions: in vivo
property_name: Vd (L/kg)
Expressed in L/kg, but write only the number.

(Q) Give Vd for C[C@@H]1CCCN1CCCOc1ccc(-c2cnn(-c3ccccn3)c(=O)c2)cc1
(A) 5.9

====

- experiment_description: Volume of distribution in Sprague-Dawley rat at 1 mg/kg, iv and 10 mg/kg, po
- Assay type: ADME, organism-based
- test_conditions: in vivo
property_name: Vd (L/kg)
Expressed in L/kg, but write only the number.

(Q) Give Vd for C[C@@H]1CCCN1CCCOc1ccc(-c2cnn(-c3ccccn3)c(=O)c2)cc1
(A) 3

====

- experiment_description: Clearance in Sprague-Dawley rat at 1 mg/kg, iv and 10 mg/kg, po
- Type: ADME, organism-based
- test_conditions: in vivo
property_name: clearance (L/h/kg)
Expressed in L/h/kg, but write only the number.

(Q) Give clearance for C[C@@H]1CCCN1CCCOc1ccc(-c2cnn(-c3ccccn3)c(=O)c2)cc1
(A) 1.2

====

- experiment_description: Half life in Sprague-Dawley rat at 1 mg/kg, iv and 10 mg/kg, po
- Type: ADME, organism-based
- test_conditions: in vivo
property_name: half-life
Value and unit, in that order.

(Q) Give half-life for C[C@@H]1CCCN1CCCOc1ccc(-c2cnn(-c3ccccn3)c(=O)c2)cc1
(A) 4.5 h

====

- experiment_description: Solubility of the compound in water at pH 7.4
- Format: physicochemical
property_name: solubility (µg/mL)
Expressed in µg/mL, but write only the number.

(Q) Give solubility for C[C@@H]1CCCN1CCCOc1ccc(-c2cnn(-c3ccccn3)c(=O)c2)cc1
(A) 900

====

- experiment_description: Half life in Sprague-Dawley rat at 1 mg/kg, iv
- Type: ADME, organism-based
- Design: dose 1 mg/kg, route intravenous
- test_conditions: in vivo
property_name: half-life (h)
Expressed in h, but write only the number.

(Q) Give half-life for C[C@@H]1CCCN1CCCOc1ccc(-c2cnn(-c3ccccn3)c(=O)c2)cc1
(A) 1.7

====

- experiment_description: Oral bioavailability in Beagle dog at 3 mg/kg
- Assay type: ADME, organism-based, Canis lupus familiaris
- test_conditions: in vivo
property_name: bioavailability
Value and unit, in that order.

(Q) Give bioavailability for C[C@@H]1CCCN1CCCOc1ccc(-c2cnn(-c3ccccn3)c(=O)c2)cc1
(A) 92%

====

- experiment_description: Half life in Beagle dog at 1 mg/kg, iv and 3 mg/kg, po
- Assay type: ADME, organism-based, Canis lupus familiaris
- test_conditions: in vivo
property_name: half-life

(Q) Give half-life for C[C@@H]1CCCN1CCCOc1ccc(-c2cnn(-c3ccccn3)c(=O)c2)cc1
(A) 48 min

====

- experiment_description: Oral bioavailability in Sprague-Dawley rat at 5 mg/kg
- Type: ADME, organism-based
- test_conditions: in vivo
label 1 means recorded bioavailability is 20% or above; label 0 means it is below 20%.

Cc1cccc(-n2ncc(-c3ccc(OCCCN4CCC[C@H]4C)cc3)cc2=O)n1 | label 0
Cc1nn(C)c(=O)cc1-c1ccc(OCCCN2CCC[C@H]2C)cc1 | label 1
C[C@H]1CCCN1CCCOc1ccc(-c2cnn(-c3ccccn3)c(=O)c2)cc1 | label 1

(Q) Tell me whether bioavailability is at least 20% here: CC(C)n1ncc(-c2ccc(OCCCN3CCC[C@H]3C)cc2)cc1=O
(A) label 0

(Q) Tell me whether bioavailability is at least 20% here: Cc1nn(-c2ccccn2)c(=O)cc1-c1ccc(OCCCN2CCC[C@H]2C)cc1
(A) label 0

(Q) Tell me whether bioavailability is at least 20% here: O=c1cc(-c2ccc(OCCCN3CCCCC3)cc2)cnn1-c1ccccn1
(A) label 1

====

- experiment_description: Ratio of drug level in brain to plasma in Sprague-Dawley rat at 10 mg/kg, ip after 1 hr
- Assay type: ADME, organism-based
- Parameters: dose 10 mg/kg, route intraperitoneal
- test_conditions: brain and plasma, read-out: BPR
Satisfied means recorded Kp at 1 h is 2 or above; Not satisfied means it is below 2.

Would you please look over these solved cases?
Cc1n[nH]c(=O)cc1-c1ccc(OCCCN2CCC[C@H]2C)cc1 | Not satisfied
O=c1cc(-c2ccc(OCCCN3CCCCC3)cc2)cnn1-c1ccccn1 | Not satisfied
Cc1n[nH]c(=O)cc1-c1ccc(OCCCN2CCCCC2)cc1 | Not satisfied

(Q) Tell me whether Kp at 1 h is at least 2 here: Cc1n[nH]c(=O)cc1-c1ccc(OCCCN2CCCCCC2)cc1
(A) Not satisfied

(Q) Tell me whether Kp at 1 h is at least 2 here: Cc1nn(-c2ccccn2)c(=O)cc1-c1ccc(OCCCN2CCC[C@H]2C)cc1
(A) Not satisfied

(Q) Tell me whether Kp at 1 h is at least 2 here: C[C@@H]1CCCN1CCCOc1ccc(-c2ccc(=O)[nH]n2)cc1 [IRDABISANT]
(A) Satisfied

(Q) Tell me whether Kp at 1 h is at least 2 here: C[C@@H]1CCCN1CCCOc1ccc(-c2cnn(C)c(=O)c2)cc1
(A) Satisfied

(Q) Tell me whether Kp at 1 h is at least 2 here: Cc1nn(C)c(=O)cc1-c1ccc(OCCCN2CCCCC2)cc1
(A) Satisfied

(Q) Tell me whether Kp at 1 h is at least 2 here: C[C@@H]1CCCN1CCCOc1ccc(-c2cnn(-c3ccccn3)c(=O)c2)cc1
(A) Not satisfied

====

- tested_system: Histamine H3 receptor (Homo sapiens)
- Sequence (Q9Y5N1 whole entry): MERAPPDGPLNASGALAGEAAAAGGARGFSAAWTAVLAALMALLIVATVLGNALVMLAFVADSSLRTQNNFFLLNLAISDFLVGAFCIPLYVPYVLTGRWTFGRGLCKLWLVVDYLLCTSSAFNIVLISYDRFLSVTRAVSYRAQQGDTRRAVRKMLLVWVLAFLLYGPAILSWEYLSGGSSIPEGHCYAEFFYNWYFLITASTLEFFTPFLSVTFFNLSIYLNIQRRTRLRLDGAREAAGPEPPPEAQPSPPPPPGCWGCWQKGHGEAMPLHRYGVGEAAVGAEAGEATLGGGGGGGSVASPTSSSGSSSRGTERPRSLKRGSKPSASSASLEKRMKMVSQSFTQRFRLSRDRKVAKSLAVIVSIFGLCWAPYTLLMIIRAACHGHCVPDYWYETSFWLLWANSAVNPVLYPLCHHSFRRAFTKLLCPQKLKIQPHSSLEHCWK
property_name: Ki (nM)
Expressed in nM, but write only the number.

Below, each entry is followed by its recorded Ki result.
Cc1nn(C)c(=O)cc1-c1ccc(OCCCN2CCCCC2)cc1 | 8.9
Cn1ncc(-c2ccc(OCCCN3CCCCCC3)cc2)cc1=O | 8.1
Cc1n[nH]c(=O)cc1-c1ccc(OCCCN2CCCCCC2)cc1 | 4.8
Cc1cccnc1-n1nc(C)c(-c2ccc(OCCCN3CCC[C@H]3C)cc2)cc1=O | 3
Cn1ncc(-c2ccc(OCCCN3CCCCC3)cc2)cc1=O | 13
Cc1n[nH]c(=O)cc1-c1ccc(OCCCN2CCCCC2)cc1 | 7.9
C[C@@H]1CCCN1CCCOc1ccc(-c2cnn(C)c(=O)c2)cc1 | 1.9
CC(C)n1ncc(-c2ccc(OCCCN3CCC[C@H]3C)cc2)cc1=O | 2.7

Continue with the next compound.
(Q) Provide measured Ki on Histamine H3 receptor (Homo sapiens) for Cc1nn(-c2ccccn2)c(=O)cc1-c1ccc(OCCCN2CCC[C@H]2C)cc1 please.
(A) 1.7

====

- experiment_description: Cmax in cynomolgus monkey at 1 mg/kg, iv and 3 mg/kg, po
- Assay type: ADME, organism-based, Macaca fascicularis
- test_conditions: in vivo
property_name: Cmax (µg/mL)
Expressed in µg/mL, but write only the number.

(Q) Give Cmax for C[C@@H]1CCCN1CCCOc1ccc(-c2cnn(-c3ccccn3)c(=O)c2)cc1
(A) 0.326
